Test system: SNB-19 CNS
Experiment: NCI tumour cell line growth inhibition, 48 h
Listed here are molecules together with their documented TGI.

Reference set (5 entries):
O=S1(=O)c2ccccc2NC(=S)N1c1ccccc1 = > 100 µM
NC(=O)NC(=NCc1ccccc1)NCc1ccccc1 = > 100 µM
CCCCCC(=O)Oc1ccc(/C(=C(\C)c2ccc(OC)cc2)c2ccc(OCCN3CCCCC3)cc2)cc1 = 24.8 µM
O=c1c2cc3c(=O)n(CCc4ccccc4CO)c(=O)c3cc2c(=O)n1CCc1ccccc1CO = > 100 µM
COc1ccc(C2=NC(C)(C)CO2)cc1 = > 100 µM

## Task Look up and report measured TGI for this entry: CC/C=C\C/C=C\C/C=C\CCCCCCCC(=O)OC(COC(=O)CCCCCCCCCCCCCCCCC)COC1OC(CO)C(O)C(O)C1O (configuration not stated)
## Result > 25 µM

## Task Look up and report measured TGI for this entry: Cc1cn(C2CC(OC(c3ccccc3)(c3ccccc3)c3ccccc3)C(COC(c3ccccc3)(c3ccccc3)c3ccccc3)O2)c(=O)[nH]c1=O (configuration not stated)
## Result > 100 µM

## Task Look up and report measured TGI for this entry: Cc1ccc(-n2cc(-c3ccc(Cl)cc3)c3c2N=CN2NC(c4ccco4)=NC32)cc1 (configuration not stated)
## Result 42.6 µM

## Task Look up and report measured TGI for this entry: CC1=CCC[C@H]2[C@](C)(CC3=CC(=O)C4SCCSC4C3=O)[C@@H](C)CC[C@]12C (some centres not stated)
## Result 37.1 µM

###

Tested on: T-47D breast
Test: NCI tumour cell line growth inhibition, 48 h
PROPERTY_LABEL: TGI

Reference set (2 entries):
CCNC(=S)N/N=C/c1ccccn1 = > 100 µM
COc1ccc(CCCCl)c(C2=NCCc3ccccc32)c1 = > 100 µM

## Task Look up and report measured TGI for this entry: C=CCOc1c(Br)cc(Br)cc1Br
## Result > 100 µM

## Task Look up and report measured TGI for this entry: NC(N)=N/N=C/c1c(-c2ccccn2)nc2sc(Cl)cn12
## Result 23.3 µM

## Task Look up and report measured TGI for this entry: CNC(=O)c1ccc(-c2cnc3ncc(Cc4ccc5ncccc5c4)n3n2)cc1F
## Result > 100 µM

## Task Look up and report measured TGI for this entry: COc1cc(/C=C2\CC3C4CC=C5CC(N6CCCC6)CC[C@]5(C)C4CC[C@]3(C)C2OC(C)=O)ccc1OCCN1CCCC1 (some centres not stated)
## Result 34.5 µM

## Task Look up and report measured TGI for this entry: C=C(C)[C@@H]1CC[C@@]2(C(=O)O)CC[C@]3(C)C(CCC4[C@@]5(C)CCC(OS(=O)(=O)c6ccccc6)C(C)(C)C5CC[C@]43C)C12 (some centres not stated)
## Result 17.1 µM

## Task Look up and report measured TGI for this entry: Clc1ccc(OCc2nnc3n2N=C(c2ccc(Cl)cc2Cl)CS3)c(Cl)c1
## Result > 100 µM

###

Test system: SF-295 CNS
Assay: NCI tumour cell line growth inhibition, 48 h
Listed here are compounds together with their documented TGI.

Reference set (2 entries):
COc1cc2nc(-c3c(F)cccc3F)n(Cc3c(F)cccc3F)c2cc1Cc1c(F)cccc1F = > 100 µM
NC(CCSCC(F)F)C(=O)O (stereo not drawn) = > 100 µM

## Task Look up and report measured TGI for this entry: CCOC(=O)C(C)NC(=O)N(C)C12CC3CC(CC(C3)C1)C2 (stereo not drawn)
## Result > 500 µM
